Molecular target: Peptidyl-prolyl cis-trans isomerase NIMA-interacting 1 (Homo sapiens)
Sequence (Q13526 whole entry): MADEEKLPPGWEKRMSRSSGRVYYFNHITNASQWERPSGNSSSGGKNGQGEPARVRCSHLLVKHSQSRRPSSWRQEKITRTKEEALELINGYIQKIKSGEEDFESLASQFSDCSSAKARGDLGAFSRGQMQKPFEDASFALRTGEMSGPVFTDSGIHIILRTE
MEASUREMENT TYPE: pIC50
One number for each entry, as −log10 of the molar value.

RECORD SMILES	MEASUREMENT TYPE	READING
CC(=O)O[C@H]1CC[C@]2(C)[C@H]3CC=C4[C@@H]5C[C@@](C)(C(=O)OCCn6c(CCC(=O)O)nc7ccccc76)CC[C@]5(C)CC[C@@]4(C)[C@]3(C)CC[C@H]2C1(C)C	pIC50	5.32
CC(=O)O[C@H]1CC[C@]2(C)[C@H]3C(=O)C=C4[C@@H]5C[C@@](C)(C(=O)OCCCn6c(CCC(=O)O)nc7ccccc76)CC[C@]5(C)CC[C@@]4(C)[C@]3(C)CC[C@H]2C1(C)C	pIC50	5.88

Next:
Inquiry: Enter measured pIC50, system Peptidyl-prolyl cis-trans isomerase NIMA-interacting 1 (Homo sapiens), for the compound shown: O=C1C=CC(=O)c2c(O)cccc21
Reply text: 4.97
